Origin of measurements: the supplement of paper PMC13380429

Test system: Caco-2
Assay: drug sensitivity score (DSS) for viability; higher = more toxic; extreme values may be limits of the assay
Details: 72 h
METRIC: drug sensitivity score

Item `CCN1C(C)(C)CC(Oc2ccc(C(=O)Nc3ccc(NC(=O)Nc4cc(C(C)(C)C)on4)cc3)nc2)CC1(C)C` has what recorded drug sensitivity score? 0

Item `N#CC(C#N)=Cc1ccc(O)c(O)c1` has what recorded drug sensitivity score? 0

Item CCCCOc1cc(CC2CNC(=O)N2)ccc1OC (stereo not drawn) has what recorded drug sensitivity score? 0

* * *

Tested on: Calu-3
Test: cell viability relative to DMSO; higher = less toxic
Conditions: 72 h; 10000 nM
Counter-ions that a name gives are not always drawn.
METRIC: cell viability (%)
Form entry: value (%) — number only.

Item `CCCC(=O)C1(c2ccccc2)CCN(C(=O)[C@@H](Cc2ccc(OC)cc2)NC(=O)[C@@H](N)Cc2cncn2C)CC1` has what recorded cell viability? 106

Item `CC(C)Cn1cnc2c1c(=O)n(C)c(=O)n2C` has what recorded cell viability? 98.4

Item `COc1ccc(CCC(=O)Nc2nc3ccc(Cl)cc3s2)cc1OC` has what recorded cell viability? 89.3

Item `Cc1cnc(-c2cnc(NCCNc3ccc(C#N)cn3)nc2-c2ccc(Cl)cc2Cl)[nH]1` has what recorded cell viability? 89.7

Item `COc1cc(C)[nH]c(=O)c1CNC(=O)c1c(C)n([C@H](C)C2CCOCC2)c2ccccc12` has what recorded cell viability? 95.7

Item `CCCNCCc1ccc(NS(=O)(=O)c2ccc(OC(F)(F)F)cc2)cc1` has what recorded cell viability? 97.4

Item `N#CC(C#N)=Cc1ccc(O)c(O)c1` has what recorded cell viability? 111

Item CC(=O)Oc1c(C)cc(OCC(O)CNC(C)C)c(C)c1C (stereo not drawn) has what recorded cell viability? 92.9

Item `CNCCCOc1cc(F)c(-c2c(Cl)nc3ncnn3c2N[C@@H](C)C(F)(F)F)c(F)c1` has what recorded cell viability? 34.7

Item `CCCn1c(=O)[nH]c(=O)c2nc[nH]c21` has what recorded cell viability? 109

Item N=c1ccn2c(n1)O[C@H]1[C@H](O)[C@@H](CO)O[C@H]12 [Cyclocytidine HCl] has what recorded cell viability? 65.9

Item `COc1ccc(/C=C/C(=O)/C=C(O)/C=C/c2ccc(OC)c(OC)c2)cc1OC` has what recorded cell viability? 81.9

Item OC[C@H]1O[C@@H](O[C@@H]2[C@H](O)[C@@H](O)[C@H](O[C@H]3[C@H](O)[C@@H](O)C(O)O[C@@H]3CO)O[C@@H]2CO)[C@H](O)[C@@H](O)[C@H]1O (stereo partly drawn) has what recorded cell viability? 101

* * *

Could you please report measured cell viability for the items listed next?
Tested on: Caco-2
Experiment: cell viability relative to DMSO; higher = less toxic
Conditions: 72 h; 10 nM
Form entry: value (%) — number only.

Item CCOP(=S)(OCC)Oc1cc(C)nc(C(C)C)n1 [dimpylate] has what recorded cell viability? 95.4

Item Clc1ccccc1CNC[C@H]1CC[C@H](CNCc2ccccc2Cl)CC1 [AY-9944] has what recorded cell viability? 108

Item `CN(C)CCn1cc(S(=O)(=O)c2cccc(F)c2)c2cccnc21` has what recorded cell viability? 102

* * *

Could you please report measured cell viability for the items listed next?
Test system: U2OS
Test: cell viability relative to DMSO; higher = less toxic
Conditions: 72 h; 10 nM
Form entry: value (%) — number only.

Lab note: need cell viability for CC(SC(=O)c1cccs1)C(=O)NCC(=O)O (centres undefined) on U2OS, anyone have it? 104

Lab note: need cell viability for `CC[C@H](CC[C@@H](C)[C@H]1CC[C@H]2[C@@H]3CC=C4C[C@@H](O[C@@H]5O[C@H](CO)[C@@H](O)[C@H](O)[C@H]5O)CC[C@]4(C)[C@H]3CC[C@]12C)C(C)C` on U2OS, anyone have it? 98.1

Lab note: need cell viability for `COc1ccc(NC(=O)c2ccc(C(=N)N(C)C)cc2)c(C(=O)Nc2ccc(Cl)cn2)c1` on U2OS, anyone have it? 100

Lab note: need cell viability for `CC1=NN=C(c2ccc(N)cc2)c2cc3c(cc2C1)OCO3` on U2OS, anyone have it? 93.9

Lab note: need cell viability for N#Cc1ccccc1OCC(O)CNCCNC(=O)Nc1ccccc1 (centres undefined) on U2OS, anyone have it? 94.3

Lab note: need cell viability for `CCN1C(C)(C)CC(Oc2ccc(C(=O)Nc3ccc(NC(=O)Nc4cc(C(C)(C)C)on4)cc3)nc2)CC1(C)C` on U2OS, anyone have it? 97

Lab note: need cell viability for `O=[N+]([O-])c1cn2c(n1)OC[C@@H](OCc1ccc(-c3ccc(OC(F)(F)F)cc3)nc1)C2` on U2OS, anyone have it? 98.8

Lab note: need cell viability for NCc1c[nH]c(=S)n1[C@H]1CCc2c(F)cc(F)cc2C1 [nepicastat] on U2OS, anyone have it? 105

Lab note: need cell viability for `O=C(CCBr)N1CCN(C(=O)CCBr)CC1` on U2OS, anyone have it? 104

* * *

System: Vero E6
Test: cell viability relative to DMSO; higher = less toxic
Conditions: 72 h; 10000 nM
METRIC: cell viability (%)
Form entry: value (%) — number only.

Lab note: need cell viability for COc1cc(C(=S)N2CCOCC2)cc(OC)c1OC [sulmetozine] on Vero E6, anyone have it? 113

Lab note: need cell viability for `CC1=NN=C(c2ccc(N)cc2)c2cc3c(cc2C1)OCO3` on Vero E6, anyone have it? 100

Lab note: need cell viability for O=C(O)Cc1ccc2c(c1)C(=O)c1ccccc1CO2 [isoxepac] on Vero E6, anyone have it? 100

Lab note: need cell viability for CN1C(=O)C(N2CCCCC2)S/C1=C\C(=O)O (stereo not drawn) [ozolinone] on Vero E6, anyone have it? 117

Lab note: need cell viability for `FC(F)(F)c1cc(CO[C@H]2CCCN[C@H]2c2ccccc2)cc(C(F)(F)F)c1` on Vero E6, anyone have it? 89.4

Lab note: need cell viability for CC(C)(C)NCC(O)CSc1nc(-c2ccc(C(N)=O)s2)cs1 (stereo not drawn) [arotinolol] on Vero E6, anyone have it? 98.4

Lab note: need cell viability for Cc1ccc(S(=O)(=O)n2c(N)nc3ccccc32)cc1 [ML130] on Vero E6, anyone have it? 96.2

Lab note: need cell viability for CS(=O)(=O)c1ccc(Oc2cc(F)cc(C#N)c2)c2c1[C@H](O)C(F)(F)C2 [PT-2385] on Vero E6, anyone have it? 105

Lab note: need cell viability for OC[C@H]1O[C@@H](O[C@@H]2[C@H](O)[C@@H](O)[C@H](O[C@H]3[C@H](O)[C@@H](O)C(O)O[C@@H]3CO)O[C@@H]2CO)[C@H](O)[C@@H](O)[C@H]1O (stereo partly drawn) [4-galactosyllactose] on Vero E6, anyone have it? 99.2

Lab note: need cell viability for `COc1ccc(CCC(=O)Nc2nc3ccc(Cl)cc3s2)cc1OC` on Vero E6, anyone have it? 95.2

Lab note: need cell viability for CCN1CCN(Cc2ccc(Nc3ncc(F)c(-c4cc(F)c5nc(C)n(C(C)C)c5c4)n3)nc2)CC1 [abemaciclib] on Vero E6, anyone have it? 38

Lab note: need cell viability for CCCC[C@H](NC(=O)[C@@H]1[C@@H]2[C@H](CN1C(=O)[C@@H](NC(=O)NC1(CS(=O)(=O)C(C)(C)C)CCCCC1)C(C)(C)C)C2(C)C)C(=O)C(=O)NC1CC1 [narlaprevir] on Vero E6, anyone have it? 87.8

Lab note: need cell viability for O=C(O)CCc1cc(C(=O)c2ccc(OC3CCCC3)cc2O)ccc1OCc1ccc2c(O)noc2c1 [T-5224] on Vero E6, anyone have it? 94.9

Lab note: need cell viability for CCCc1c(OCCCCc2nnn[nH]2)ccc(C(C)=O)c1O [tomelukast] on Vero E6, anyone have it? 106

Lab note: need cell viability for COc1ccc2c(O[C@@H]3C[C@H]4C(=O)N[C@]5(C(=O)NS(=O)(=O)C6CC6)C[C@H]5/C=C\CCCCN(C)C(=O)[C@@H]4C3)cc(-c3nc(C(C)C)cs3)nc2c1C [simeprevir] on Vero E6, anyone have it? 102

Lab note: need cell viability for CC(C(=O)O)c1ccc2c(c1)[nH]c1ccc(Cl)cc12 (stereo not drawn) [carprofen] on Vero E6, anyone have it? 101

Lab note: need cell viability for `Cc1cnc(-c2cnc(NCCNc3ccc(C#N)cn3)nc2-c2ccc(Cl)cc2Cl)[nH]1` on Vero E6, anyone have it? 76.8

Lab note: need cell viability for NC(=O)c1cn([C@@H]2O[C@H](CO)[C@@H](O)[C@H]2O)c2ncnc(N)c2c1=O [API-1] on Vero E6, anyone have it? 47.3

Lab note: need cell viability for COC(=O)C1=C(C)NC(C)=C(C(=O)OCCN2CCN(C(c3ccccc3)c3ccccc3)CC2)C1c1cccc([N+](=O)[O-])c1 (stereo not drawn) [manidipine] on Vero E6, anyone have it? 93.3

Lab note: need cell viability for `COCCOc1ccc2c(c1)ncn2-c1ccc2cccc(N3CCC(N)CC3)c2n1` on Vero E6, anyone have it? 48.5

Lab note: need cell viability for CCC(C/C=C/c1ccccc1)(c1ccccc1)N(C)CC1CC1 (stereo not drawn) [igmesine] on Vero E6, anyone have it? 107

Lab note: need cell viability for COc1cc2c(cc1OC)C1CC(=O)C(CC(C)C)CN1CC2 (stereo not drawn) [tetrabenazine] on Vero E6, anyone have it? 95

Lab note: need cell viability for COc1c(O)cc2c(c1O)[C@@H]1O[C@H](CO)[C@@H](O)[C@H](O)[C@H]1OC2=O [bergenin] on Vero E6, anyone have it? 101

Lab note: need cell viability for `O=C(CN1C2=NCCN2c2ccccc21)c1ccc(-c2ccccc2)cc1` on Vero E6, anyone have it? 83.4

Lab note: need cell viability for C[N+](C)(C)[C@@H](Cc1c[nH]c(=S)[nH]1)C(=O)O [L-ergothioneine] on Vero E6, anyone have it? 106

Lab note: need cell viability for CC(C)COc1ccc(CNC(=O)N(Cc2ccc(F)cc2)C2CCN(C)CC2)cc1 [pimavanserin] on Vero E6, anyone have it? 98.4

Lab note: need cell viability for CN(C)CCOc1ccc(/C(=C(/CCCl)c2ccccc2)c2ccccc2)cc1 [toremifene] on Vero E6, anyone have it? 53.6

Lab note: need cell viability for C[C@H](CS)C(=O)N1CCC[C@H]1C(=O)O [captopril] on Vero E6, anyone have it? 96.6
